Tested on: SkBr3 (erbB2+) cells
REPORTED_ENDPOINT: pIC50
pIC50 here is simply -log10 of the concentration when that concentration is written in mol/L.

In plain terms, CS(=O)(=O)CCNCc1ccc(-c2ccc3ncnc(Nc4ccc(OCc5cccc(F)c5)c(Cl)c4)c3c2)o1 [lapatinib, reference compound] has a documented pIC50 of 7.32
